# Tgt: WT GlyT2 (Homo sapiens, UniProt Q9Y345)
# Sequence (Q9Y345 whole entry): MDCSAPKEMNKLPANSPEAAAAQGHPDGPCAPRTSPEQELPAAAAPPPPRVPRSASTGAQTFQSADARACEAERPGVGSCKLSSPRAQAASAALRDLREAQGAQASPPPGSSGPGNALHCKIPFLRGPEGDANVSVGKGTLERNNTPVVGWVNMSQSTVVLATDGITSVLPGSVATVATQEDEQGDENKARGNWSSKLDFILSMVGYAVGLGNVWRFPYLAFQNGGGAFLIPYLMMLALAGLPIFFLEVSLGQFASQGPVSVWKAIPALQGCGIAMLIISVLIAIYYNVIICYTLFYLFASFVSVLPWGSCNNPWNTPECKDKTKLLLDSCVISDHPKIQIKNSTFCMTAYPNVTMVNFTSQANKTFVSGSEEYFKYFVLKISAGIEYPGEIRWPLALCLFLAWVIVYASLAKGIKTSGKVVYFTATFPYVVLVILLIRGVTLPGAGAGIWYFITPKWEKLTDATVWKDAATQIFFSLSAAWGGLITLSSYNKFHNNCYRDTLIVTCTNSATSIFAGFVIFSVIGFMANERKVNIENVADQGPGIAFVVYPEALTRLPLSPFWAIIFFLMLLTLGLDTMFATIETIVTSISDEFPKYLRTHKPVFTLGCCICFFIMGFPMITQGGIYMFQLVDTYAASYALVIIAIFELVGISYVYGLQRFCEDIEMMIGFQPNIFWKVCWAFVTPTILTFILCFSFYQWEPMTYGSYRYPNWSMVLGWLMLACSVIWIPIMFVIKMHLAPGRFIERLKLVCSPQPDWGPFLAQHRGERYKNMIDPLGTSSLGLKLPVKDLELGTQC
# Test: Inhibitor concentration–responses on glycine transport currents, two-electrode voltage clamp (control and MβCD-treated oocytes)
# Assay type: cell-based
# Set-up: expressed in transfected cells; host or cells: Xenopus laevis oocytes injected with in vitro transcribed RNA (pOTV vector)
# Condition Info: MβCD-treated oocytes (15 mM, 30 min, 32 °C; cholesterol depleted)
pIC50: −log10 of the molar value.
Assay Readout: pIC50

| Compound | Assay Readout | Endpoint Result |
| --- | --- | --- |
| CCCCCCCC/C=C\CCCCCCCC(=O)O[C@H](CC(=O)[O-])C[N+](C)(C)C [Oleoyl-L-Carnitine, oleoyl-L-carnitine] | pIC50 | 6.10 |

A: CCCCCCCC/C=C\CCCCCCCC(=O)N[C@@H](CCCCN)C(=O)O [Oleoyl-L-Lysine, oleoyl-L-lysine]
B: CCCCCCCC/C=C\CCCCCCCC(=O)N[C@@H](Cc1c[nH]c2ccccc12)C(=O)O [Oleoyl-L-Tryptophan, oleoyl-L-tryptophan]
C: CCCCCCCC/C=C\CCCCCCCC(=O)N[C@@H](CC(C)C)C(=O)O [Oleoyl-L-Leucine, oleoyl-L-leucine]
Ask | Sort (3 compounds) by pIC50: min first. Form entry: ranked labels (order as requested).
Reply | C, A, B
